Target: Neu5Ac(a2-6)Gal(b1-4)GlcNAc
Experiment: glycan array binding signal (z-score within array); higher = stronger binding
Details: glycan notation: IUPAC condensed, linker removed
This excerpt belongs to a sample that is enriched for the strongest signals.
Measured glycan array binding signal (z-score) by item
Measure: glycan array binding signal (z-score)

{"Binder": "Tamarinin (protein) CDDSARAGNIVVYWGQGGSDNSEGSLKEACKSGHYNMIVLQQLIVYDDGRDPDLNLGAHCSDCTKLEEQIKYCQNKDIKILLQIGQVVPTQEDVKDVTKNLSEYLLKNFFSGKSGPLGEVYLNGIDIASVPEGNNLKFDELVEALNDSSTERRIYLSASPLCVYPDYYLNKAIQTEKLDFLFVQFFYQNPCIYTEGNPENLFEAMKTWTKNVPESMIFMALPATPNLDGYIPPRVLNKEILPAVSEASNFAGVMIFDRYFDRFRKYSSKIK", "Readout value": -0.341}
{"Binder": "HFR-1 (Triticum aestivum) (protein) MSPQSFTLETTTTTPAAKGSDPSYFQSAPACHEMIQHKELLLHLYAYQNVQKTPDANQAVIVESKRPECFGILAANDWTVYDGPAHNANLVAHAQGLHLGASMAKENWFICFNMVFVNQRFTGSSFKVMGDFQGTAHNGEWAIVGGTGEFAYAQGVIAFKKTQQSERNARMELHVRAMCLSFLRPLLSLGDGSAVAKIGPWGKMSGELLDIPSTPQRLERITIRHGVVIDSLAFSFIDKAGEPYNVGPWGGRRGDNKDTIELAPSEIVTEVSGTVGIFAEDNVEYNAIASLTITTNHRPYGPFGETQSTPFSVPVQDNNNIVGFFACAGKYVEALGVYVRSPVST", "Readout value": -0.223}
{"Binder": "Codakine (Codakia orbicularis), Q3KVL7_9BIVA (protein) MKILVAVFLVLVVVGTAAAGCPDGWTQFLDLCYIYQSAKASWASAQSSCQALGGILAEPDTACENEVLIHMCRENGDAGSFGPWLGGQKVGGAWQWSSSGAAFDYLRWGPNEPNNSGGNEDCLHYNWLSWNDLRCHYQASYLCQRAAE", "Readout value": -0.224}

meta.source: the supplement of paper PMC8728848
